Measured growth values are reported for all entries that follow.
Tested on: BT-549 breast
Assay: NCI-60 one-dose screen, 48 h (100 = growth as untreated, 0 = no growth, -100 = all killed)
Conditions: 10 µM unless noted
Compounds without any hit were thinned out: in the full panel of roughly 83,000, 20% have a hit. The source made the active and inactive calls. The calls were made as follows: active = growth percent below 10; inactive = the rest.

Please review the following examples before continuing.
Ask: Notebook: pull reported growth for BT-549 breast, entry N#Cc1c(NC(=O)c2ccccc2C(F)(F)F)sc2c1CCC(=O)C2
Result: 11.7% (inactive)

Ask: Notebook: pull reported growth for BT-549 breast, entry CCN1C/C(=N\S(=O)(=O)c2ccccc2)N(CC)C1=S
Result: 97.3% (inactive)

Ask: Notebook: pull reported growth for BT-549 breast, entry COc1cc2c3c(n(CCCNC4CCCC4)c(=O)c2cc1OC)-c1cc2c(cc1C3=O)OCO2
Result: 74.8% (inactive)

---
Ask: Notebook: pull reported growth for BT-549 breast, entry CSc1ccc(/C(=N/N=C(N)N)c2ccccc2)cc1
Result: 53.8% (inactive)

Ask: Notebook: pull reported growth for BT-549 breast, entry O=C1c2c(c3c4cccnc4[nH]c3c3ccc4ccccc4c23)C(=O)N1CCN1CCOCC1
Result: 65.6% (inactive)

Ask: Notebook: pull reported growth for BT-549 breast, entry CCC(=O)Nc1cc(Nc2cc(NC3CC3)n3ncc(C#N)c3n2)ccc1C
Result: 29.5% (inactive)

----------
System: UACC-62 melanoma
Test: NCI-60 one-dose screen, 48 h (100 = growth as untreated, 0 = no growth, -100 = all killed)
Settings: 10 µM unless noted
The panel holds about 83,000 compounds, 20% with a hit somewhere; the sample as a whole holds those more often.
Measured growth values are reported for all entries that follow.
Just the number please, in %, no unit attached.

Ask: I would be grateful if you could share the reported growth for O=C(NCCCNc1cc(-c2cn(-c3ccccc3)nc2-c2cccc(O)c2)ccn1)Nc1ccc(F)cc1 .
Result: 8.05

Ask: I would be grateful if you could share the reported growth for COc1ccc2c(c1)oc1c3[nH]c4ccccc4c3c3c(c21)C(=O)N(O)C3=O .
Result: 12.4

Ask: I would be grateful if you could share the reported growth for C/C=C/C=C1\C[C@H]2CO[C@H](O2)C1=O .
Result: 89.5

Ask: I would be grateful if you could share the reported growth for COc1ccc(-c2no[n+]([O-])c2Nc2ccccc2Br)cc1 .
Result: 71.6

Ask: I would be grateful if you could share the reported growth for CNC(=O)c1cc(Oc2ccc3nc(NC(=O)c4cc(C)cc(C)c4)sc3c2)ccn1 .
Result: 76.9

----------
System: U251 CNS
Experiment: NCI-60 one-dose screen, 48 h (100 = growth as untreated, 0 = no growth, -100 = all killed)
Settings: 10 µM unless noted
About 83,000 compounds went through this panel and 20% of them were active in at least one assay; those are over-represented in the sample as a whole.
observed-property: growth (%)
Just the number please, in %, no unit attached.

Please review the following examples before continuing.
Ask: I would be grateful if you could share the reported growth for COc1cc(-c2noc(C[C@@H](NC(=O)OCc3ccccc3)C(C)C)n2)cc(OC)c1OC .
Result: 98.4

Ask: I would be grateful if you could share the reported growth for COc1ccc([C@H]2c3[nH]c4ccccc4c3C[C@@H]3C(=O)N(C4CCN(Cc5ccccc5)CC4)CC(=O)N23)c(OC)c1 .
Result: 75.8

Ask: I would be grateful if you could share the reported growth for CN1CCN(c2ccc(NC(=O)Nc3ccc4c(ccn4-c4cccc(C(N)=O)n4)c3)cc2C(F)(F)F)CC1 .
Result: 33.8

Let us move to another entry and its growth.
Ask: I would be grateful if you could share the reported growth for O=S(=O)(NCCCNc1nccc(-n2cnc3ccccc32)n1)c1ccc(F)cc1 .
Result: 93.8
